- assay_notes: AUC in rat at 2.5 umol/kg, iv
- Type: ADME, organism-based
- reported_conditions: plasma
outcome_measure: AUC (µM·h)

State the recorded AUC for this entry: `Cc1ncc(-c2nc(Nc3ccc(C(=O)N4CC[C@H](N(C)C)C4)cc3)ncc2F)n1C(C)C`
0.8

A. Cc1ncc(-c2nc(Nc3ccc(C(=O)NCCN(C)C)c(F)c3)ncc2F)n1C(C)C
B. Cc1ncc(-c2nc(Nc3ccc(C(=O)NC4CCN(C)CC4)c(F)c3)ncc2F)n1C(C)C
Lab note: check whether A or B shows the higher recorded AUC. Return value: the label identifying the chosen record.
B

---

- assay_notes: Clearance in rat at 1 umol/kg, iv
- Type: ADME, organism-based
- reported_conditions: in vivo
outcome_measure: clearance (mL/min/kg)
Reply with just the number (in mL/min/kg).

State the recorded clearance for this entry: `Cc1ncc(-c2nc(Nc3ccc(C(=O)N4CCCN(C)CC4)cc3)ncc2F)n1C(C)C`
28

---

- assay_notes: Volume of distribution at steady state in rat at 2.5 umol/kg, iv
- Type: ADME, organism-based
- reported_conditions: in vivo, read-out: Vdss
outcome_measure: Vd (L/kg)

A. Cc1ncc(-c2nc(Nc3ccc(C(=O)N4CC[C@H](N(C)C)C4)cc3)ncc2F)n1C(C)C
B. Cc1ncc(-c2nc(Nc3ccc(C(=O)NCCN(C)C)c(F)c3)ncc2F)n1C(C)C
C. Cc1ncc(-c2nc(Nc3ccc(C(=O)NC4CCN(C)CC4)c(F)c3)ncc2F)n1C(C)C
Please rank the 3 items above; order by Vd, the highest number leading. Returns: the labels listed in the requested order.
B, C, A

---

- Tested on: Rattus norvegicus
- assay_notes: AUC in Han/Wistar rat at 2.5 umol/kg, iv
- Type: ADME, organism-based, Plasma
- reported_conditions: in vivo
outcome_measure: AUC (µM·h)
Reply with just the number (in µM·h).

State the recorded AUC for this entry: `CN[C@H]1CCN(C(=O)c2ccc(Nc3ncc(F)c(-c4cnc(C)n4C(C)C)n3)cc2)C1`
1.38

---

- Tested on: Mus musculus
- assay_notes: AUC in nude mouse at 5 umol/kg, iv
- Type: ADME, organism-based, Plasma
- reported_conditions: in vivo
outcome_measure: AUC (µM·h)
Reply with just the number (in µM·h).

State the recorded AUC for this entry: `CN[C@H]1CCN(C(=O)c2ccc(Nc3ncc(F)c(-c4cnc(C)n4C(C)C)n3)cc2)C1`
2.4

---

- assay_notes: Volume of distribution at steady state in nude mouse at 5 umol/kg, iv
- Assay type: ADME, organism-based
- reported_conditions: in vivo, read-out: Vdss
outcome_measure: Vd (L/kg)
Reply with just the number (in L/kg).

State the recorded Vd for this entry: `CN[C@H]1CCN(C(=O)c2ccc(Nc3ncc(F)c(-c4cnc(C)n4C(C)C)n3)cc2)C1`
5.1

---

- Test system: LoVo
- assay_notes: Antiproliferative activity against human LoVo cells assessed as inhibition of BrdU incorporation after 48 hrs
- Type: functional, cell-based
pIC50: −log10 of the molar value.
outcome_measure: pIC50

Solved cases below.
State the recorded pIC50 for this entry: `Cc1ncc(-c2nc(Nc3ccc(C(=O)NCCN(C)C)c(F)c3)ncc2F)n1C(C)C`
8.70

State the recorded pIC50 for this entry: `CN[C@H]1CCN(C(=O)c2ccc(Nc3nccc(-c4cnc(C)n4C(C)C)n3)cc2)C1`
6.74

State the recorded pIC50 for this entry: `Cc1ncc(-c2nc(Nc3ccc(C(=O)N4CCN(C)CC4)cc3)ncc2F)n1C(C)C`
6.77

1. Cc1ncc(-c2nc(Nc3ccc(C(=O)N4CC[C@@H](N(C)C)C4)cc3)ncc2F)n1C(C)C
2. Cc1ncc(-c2nc(Nc3ccc(C(=O)NC4CCN(C)CC4)cc3)ncc2F)n1C(C)C
Decide: 1 or 2 , by lowest recorded pIC50. Return value: the label identifying the chosen record.
2

I. Cc1ncc(-c2nc(Nc3ccc(C(=O)N4CCCN(C)CC4)cc3)ncc2F)n1C(C)C
II. Cc1ncc(-c2nc(Nc3ccc(C(=O)NC4CCN(C)CC4)c(F)c3)ncc2F)n1C(C)C
Decide: I or II , by lowest recorded pIC50. Return value: the label identifying the chosen record.
II
(II: 7.10, I: 7.40)

a. CCCN(C)[C@H]1CCN(C(=O)c2ccc(Nc3nccc(-c4cnc(C)n4C(C)C)n3)cc2)C1
b. Cc1ncc(-c2ccnc(Nc3ccc(C(=O)NC4CCN(C)CC4)c(F)c3)n2)n1C(C)C
Lab note: check whether a or b shows the higher recorded pIC50. Return value: the label identifying the chosen record.
a

---

- assay_notes: Lipophilicity, log D of the compound
- Type: physicochemical
- reported_conditions: octanol/water
outcome_measure: logD

Solved cases below.
State the recorded logD for this entry: `Cc1ncc(-c2nc(Nc3ccc(C(=O)N4CC[C@H](N(C)C)C4)cc3)ncc2F)n1C(C)C`
2.1

State the recorded logD for this entry: `Cc1ncc(-c2nc(Nc3ccc(C(=O)NCCN(C)C)c(F)c3)ncc2F)n1C(C)C`
2.3

State the recorded logD for this entry: `Cc1ncc(-c2nc(Nc3ccc(C(=O)N4CCCN(C)CC4)cc3)ncc2F)n1C(C)C`
2

P. Cc1ncc(-c2nc(Nc3ccc(C(=O)NC4CCN(C)CC4)c(F)c3)ncc2F)n1C(C)C
Q. CN[C@H]1CCN(C(=O)c2ccc(Nc3ncc(F)c(-c4cnc(C)n4C(C)C)n3)cc2)C1
Decide: P or Q , by lowest recorded logD. Return value: the label identifying the chosen record.
Q
(Q: 1.45, P: 2.4)

---

- Tested on: LoVo
- assay_notes: Antiproliferative activity against human LoVo cells assessed as inhibition of BrdU incorporation after 48 hrs
- Type: functional, cell-based
outcome_measure: IC50 (nM)

Solved cases below.
State the recorded IC50 for this entry: `Cc1ncc(-c2ccnc(Nc3ccc(C(=O)NC4CCN(C)CC4)cc3)n2)n1C(C)C`
2100

State the recorded IC50 for this entry: `Cc1ncc(-c2ccnc(Nc3ccc(C(=O)NCCN(C)C)c(F)c3)n2)n1C(C)C`
3

State the recorded IC50 for this entry: `Cc1ncc(-c2ccnc(Nc3ccc(C(=O)N4CCN(C)CC4)cc3)n2)n1C(C)C`
520

State the recorded IC50 for this entry: `Cc1ncc(-c2nc(Nc3ccc(C(=O)N4CC[C@H](N(C)C)C4)cc3)ncc2F)n1C(C)C`
37

P. Cc1ncc(-c2ccnc(Nc3ccc(C(=O)N4CC[C@H](NC5CC5)C4)cc3)n2)n1C(C)C
Q. CN[C@H]1CCN(C(=O)c2ccc(Nc3ncc(F)c(-c4cnc(C)n4C(C)C)n3)cc2)C1
Decide: P or Q , by lowest recorded IC50. Return value: the label identifying the chosen record.
Q

---

- assay_notes: Volume of distribution at steady state in Beagle dog at 0.2 umol/kg, iv
- Assay type: ADME, organism-based, Canis lupus familiaris
- reported_conditions: in vivo, read-out: Vdss
outcome_measure: Vd (L/kg)
Reply with just the number (in L/kg).

State the recorded Vd for this entry: `CN[C@H]1CCN(C(=O)c2ccc(Nc3ncc(F)c(-c4cnc(C)n4C(C)C)n3)cc2)C1`
40.4

---

- assayed_system: UniProt P50750
- Sequence (P50750 whole entry): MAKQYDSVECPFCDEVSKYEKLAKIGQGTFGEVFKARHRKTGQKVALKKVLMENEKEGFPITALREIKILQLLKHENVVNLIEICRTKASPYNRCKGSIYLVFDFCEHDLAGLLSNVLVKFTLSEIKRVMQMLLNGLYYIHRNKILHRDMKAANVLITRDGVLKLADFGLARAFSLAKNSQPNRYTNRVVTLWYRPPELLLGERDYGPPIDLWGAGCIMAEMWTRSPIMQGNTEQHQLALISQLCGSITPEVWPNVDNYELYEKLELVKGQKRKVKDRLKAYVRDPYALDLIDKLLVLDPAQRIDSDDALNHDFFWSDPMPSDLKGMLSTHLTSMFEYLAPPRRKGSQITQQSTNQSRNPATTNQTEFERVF
- assay_notes: Inhibition of CDK9
outcome_measure: Activity (µM)

Solved cases below.
Entry `Cc1ncc(-c2nc(Nc3ccc(C(=O)NCCN(C)C)c(F)c3)ncc2F)n1C(C)C` , system UniProt P50750: what Activity was measured?
0.003

Entry `Cc1ncc(-c2nc(Nc3ccc(C(=O)N4CCCN(C)CC4)cc3)ncc2F)n1C(C)C` , system UniProt P50750: what Activity was measured?
0.012

I. Cc1ncc(-c2nc(Nc3ccc(C(=O)NC4CCN(C)CC4)c(F)c3)ncc2F)n1C(C)C
II. Cc1ncc(-c2nc(Nc3ccc(C(=O)N4CC[C@H](N(C)C)C4)cc3)ncc2F)n1C(C)C
Decide: I or II , by lowest recorded Activity. Return value: the label identifying the chosen record.
II

---

- assayed_system: Cyclin-dependent kinase 1 (Homo sapiens)
- Sequence (P06493 whole entry): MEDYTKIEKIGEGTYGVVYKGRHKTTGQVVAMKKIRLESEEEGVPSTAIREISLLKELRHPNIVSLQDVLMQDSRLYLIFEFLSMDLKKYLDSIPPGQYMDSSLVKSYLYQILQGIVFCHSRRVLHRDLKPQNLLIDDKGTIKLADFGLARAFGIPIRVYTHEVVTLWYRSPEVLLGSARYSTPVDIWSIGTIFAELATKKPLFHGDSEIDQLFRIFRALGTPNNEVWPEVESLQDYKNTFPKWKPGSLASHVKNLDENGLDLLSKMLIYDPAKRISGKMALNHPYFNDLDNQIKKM
pIC50: −log10 of the molar value.
outcome_measure: pIC50

Solved cases below.
State the recorded pIC50 for this entry: `Cc1ncc(-c2ccnc(Nc3ccc(C(=O)NCCN(C)C)c(F)c3)n2)n1C(C)C`
7.54

State the recorded pIC50 for this entry: `Cc1ncc(-c2ccnc(Nc3ccc(C(=O)N4CCN(C)CC4)cc3)n2)n1C(C)C`
7.15

State the recorded pIC50 for this entry: `Cc1ncc(-c2nc(Nc3ccc(C(=O)N4CCCN(C)CC4)cc3)ncc2F)n1C(C)C`
8.30

State the recorded pIC50 for this entry: `Cc1ncc(-c2nc(Nc3ccc(C(=O)NC4CCN(C)CC4)c(F)c3)ncc2F)n1C(C)C`
7.92

a. CN[C@H]1CCN(C(=O)c2ccc(Nc3ncc(F)c(-c4cnc(C)n4C(C)C)n3)cc2)C1
b. CN[C@H]1CCN(C(=O)c2ccc(Nc3nccc(-c4cnc(C)n4C(C)C)n3)cc2)C1
Lab note: check whether a or b shows the higher recorded pIC50. Return value: the label identifying the chosen record.
a
